These entries and their values trace back to PubChem BioAssay (NCI).

test system: K-562 leukemia; assay: NCI-60 one-dose screen, 48 h (100 = growth as untreated, 0 = no growth, -100 = all killed); conditions: 10 µM
This is part of a sample that, as a whole, favours compounds with a hit. Of some 83,000 tested, about 20% had one in any assay.
If the reported growth equals or exceeds 20%, assign class 1. If not, assign class 0.

- COMPOUND: "COc1cc2oc(-c3cccc(C(=O)Nc4ccc(Cl)cc4)c3)cc(=O)c2c(OCCNC(=O)[C@@H](N)CO)c1OC"
  SYSTEM_TESTED: "K-562 leukemia"
  LABEL_VALUE: "class 0"
- COMPOUND: "Cc1ccc2sc3c(c2c1)Oc1nc[nH]c(=O)c1C3c1cccc(F)c1 (stereo not drawn)"
  SYSTEM_TESTED: "K-562 leukemia"
  LABEL_VALUE: "class 1"
- COMPOUND: "Cc1ccc(-c2nc(C#N)c(S(=O)(=O)N3CCN(S(C)(=O)=O)CC3)o2)cc1"
  SYSTEM_TESTED: "K-562 leukemia"
  LABEL_VALUE: "class 0"
- COMPOUND: "COc1cccc(C(=O)CSc2nc(-c3ccc(OCc4ccccc4)c(OC)c3)c(C#N)c(=O)[nH]2)c1"
  SYSTEM_TESTED: "K-562 leukemia"
  LABEL_VALUE: "class 1"
- COMPOUND: "Fc1ccc(-c2csc(Nc3cccc(Nc4nc(-c5ccc(F)cc5)cs4)c3)n2)cc1"
  SYSTEM_TESTED: "K-562 leukemia"
  LABEL_VALUE: "class 1"
- COMPOUND: "C#C[C@]1(O)CC[C@H]2[C@@H]3CC=C4c5sc(Nc6ccc(N(C)C)cc6)nc5CC[C@]4(C)[C@H]3CC[C@@]21C"
  SYSTEM_TESTED: "K-562 leukemia"
  LABEL_VALUE: "class 0"
- COMPOUND: "Cc1cc(N=C2NC(=O)/C(=C/c3cc(C(C)(C)C)c(O)c(C(C)(C)C)c3)S2)n[nH]1"
  SYSTEM_TESTED: "K-562 leukemia"
  LABEL_VALUE: "class 0"
- COMPOUND: "Cn1cc(/C=C(/SS/C(=C/c2cn(C)c3cccc(C(=O)O)c23)C(=O)O)C(=O)O)c2c(C(=O)O)cccc21"
  SYSTEM_TESTED: "K-562 leukemia"
  LABEL_VALUE: "class 1"

---

system: OVCAR-3 ovarian; experiment: NCI-60 one-dose screen, 48 h (100 = growth as untreated, 0 = no growth, -100 = all killed); details: 10 µM
About 83,000 compounds went through this panel and 20% of them were active in at least one assay; those are over-represented in the sample as a whole.

- MOLECULE: "COc1ccc(Cc2nn(CC(=O)N/N=C/c3ccc([N+](=O)[O-])cc3)c(=O)c3c(C)noc23)cc1"
  growth, %: 45.1
- MOLECULE: "Nc1nnc(-c2c[nH]c3ncc(Br)cc23)c(-c2c[nH]c3ccc(Br)cc23)n1"
  growth, %: 4.38
- MOLECULE: "Cc1ccc(S(=O)(=O)N2CCN(S(=O)(=O)c3oc(-c4ccccc4)nc3C#N)CC2)cc1"
  growth, %: 92.5
- MOLECULE: "O=C(Nc1ccc(OCc2ccc(Cl)cc2)cc1)Nc1ccc(Cl)c(C(F)(F)F)c1"
  growth, %: 29.3
- MOLECULE: "CC1[C@H]2[C@H](C[C@H]3[C@@H]4CC=C5c6sc(Nc7cccc(Cl)n7)nc6CC[C@]5(C)[C@H]4CC[C@@]32C)O[C@]12CC[C@@H](C)CO2 (stereo partly drawn)"
  growth, %: 93.7
- MOLECULE: "O=C(Nc1ccc(OCc2ccc(F)cc2)cc1)Nc1ccc(Cl)c(C(F)(F)F)c1"
  growth, %: 34.5
- MOLECULE: "Cn1cc(/C=C(/SS/C(=C/c2cn(C)c3cccc(C(=O)O)c23)C(=O)O)C(=O)O)c2c(C(=O)O)cccc21"
  growth, %: 109
- MOLECULE: "O=C(CSc1nc2ccccc2c(=O)n1-c1ccc(Cl)cc1)Nc1ccc(-c2nc3ccc([N+](=O)[O-])cc3[nH]2)cc1"
  growth, %: 19.4

---

Recorded measurements of growth, one per entry
test system: MDA-MB-468 breast; experiment: NCI-60 one-dose screen, 48 h (100 = growth as untreated, 0 = no growth, -100 = all killed); details: 10 µM unless noted
About 83,000 compounds went through this panel and 20% of them were active in at least one assay; those are over-represented in the sample as a whole.
OBSERVATION_TYPE: growth (%)

- COMPOUND: "Nc1cc(C(=O)O)cc(C(=O)O)c1"
  OBSERVATION_TYPE: "growth"
  UNIT_NAME: "%"
  VAL: 112
- COMPOUND: "COc1cc(C2=Nc3c(N)nc(N)nc3NC(c3cccc(Nc4ccnc5cc(C(F)(F)F)ccc45)c3)C2)cc(OC)c1OC (stereo not given)"
  OBSERVATION_TYPE: "growth"
  UNIT_NAME: "%"
  VAL: 68.1
- COMPOUND: "N#CC1=C(/N=C/c2ccccc2)Oc2c(ccc3ccccc23)C1c1ccccc1 (stereo not given)"
  OBSERVATION_TYPE: "growth"
  UNIT_NAME: "%"
  VAL: 6.43
- COMPOUND: "O=C1Nc2cc(-c3cccc([N+](=O)[O-])c3)ccc2/C1=C/c1ccc[nH]1"
  OBSERVATION_TYPE: "growth"
  UNIT_NAME: "%"
  VAL: -7.17
- COMPOUND: "O=C(c1ccc(Nc2nccc(NCCCCNc3ccnc4cc(Cl)ccc34)n2)cc1)N1CCCCC1"
  OBSERVATION_TYPE: "growth"
  UNIT_NAME: "%"
  VAL: -25.3
- COMPOUND: "O=C(CNC1C2CC3CC(C2)CC1C3)Sc1nnc2sc3ccccc3n12 (stereo not given)"
  OBSERVATION_TYPE: "growth"
  UNIT_NAME: "%"
  VAL: 102
- COMPOUND: "O=C1Nc2c(ccc(Cl)c2Cl)/C1=C\\c1ccc(C(F)(F)F)cc1"
  OBSERVATION_TYPE: "growth"
  UNIT_NAME: "%"
  VAL: 92.8
- COMPOUND: "CC(=O)NCCCS(=O)(=O)O"
  OBSERVATION_TYPE: "growth"
  UNIT_NAME: "%"
  VAL: 113
- COMPOUND: "COc1cc(/C=C/C(=O)c2ccc(N3CCN(C)CC3)cc2)ccc1F"
  OBSERVATION_TYPE: "growth"
  UNIT_NAME: "%"
  VAL: 35
- COMPOUND: "COc1ccc(Cl)cc1NC(=O)c1cc2c(n1C)-c1nc(NC(=O)C(C)(C)C)sc1CC2"
  OBSERVATION_TYPE: "growth"
  UNIT_NAME: "%"
  VAL: 96.7

---

Recorded measurements of growth, one per entry
test system: MDA-MB-468 breast; experiment: NCI-60 one-dose screen, 48 h (100 = growth as untreated, 0 = no growth, -100 = all killed); conditions: 10 µM unless noted
About 83,000 compounds went through this panel and 20% of them were active in at least one assay; those are over-represented in the sample as a whole.

- STRUCTURE_SMILES_STRING: "CCCCCCCCCCCCCCCCCc1nccn1CCO"
  SYSTEM_TESTED: "MDA-MB-468 breast"
  growth, %: 91.5
- STRUCTURE_SMILES_STRING: "O=C1/C=C/[C@@H](O)[C@@H]2C[C@@H](O)C[C@H]2/C=C/CCC[C@H]([C@@H](O)CO)O1"
  SYSTEM_TESTED: "MDA-MB-468 breast"
  growth, %: -5.34
- STRUCTURE_SMILES_STRING: "O=C(OCc1nc2nc(Cl)nc(N3CCOCC3)c2[nH]1)n1ccnc1"
  SYSTEM_TESTED: "MDA-MB-468 breast"
  growth, %: -26.9
- STRUCTURE_SMILES_STRING: "Cc1ccc(NC(=O)c2ccc(CN3CCN(C)CC3)cc2)cc1Nc1nc(-c2cccnc2)cs1"
  SYSTEM_TESTED: "MDA-MB-468 breast"
  growth, %: 25.5
- STRUCTURE_SMILES_STRING: "CC(C)c1ccc(C(=O)OC2CCCC2)cc1"
  SYSTEM_TESTED: "MDA-MB-468 breast"
  growth, %: 106
- STRUCTURE_SMILES_STRING: "CN(C)C(C)(C)CC(C)(C)C"
  SYSTEM_TESTED: "MDA-MB-468 breast"
  growth, %: 116
- STRUCTURE_SMILES_STRING: "CO[C@@H](C(=O)N1Cc2[nH]nc(NC(=O)c3ccc(N4CCN(C)CC4)cc3)c2C1)c1ccccc1"
  SYSTEM_TESTED: "MDA-MB-468 breast"
  growth, %: 50.7
- STRUCTURE_SMILES_STRING: "CC[N+](C)(C)N"
  SYSTEM_TESTED: "MDA-MB-468 breast"
  growth, %: 95.9
- STRUCTURE_SMILES_STRING: "COc1cc(OC)c(/C=C/S(=O)(=O)Cc2ccc(OC)c(N)n2)c(OC)c1"
  SYSTEM_TESTED: "MDA-MB-468 breast"
  growth, %: 13.5
- STRUCTURE_SMILES_STRING: "CS(=O)(=O)c1ccc2c(c1)c1c(n2C(=O)c2ccc(Cl)cc2)CCCC1"
  SYSTEM_TESTED: "MDA-MB-468 breast"
  growth, %: 27.7
- STRUCTURE_SMILES_STRING: "COc1cc(-c2nc3occn3c2-c2ccnc(NCCNS(=O)(=O)c3ccc(Cl)cc3)n2)ccc1F"
  SYSTEM_TESTED: "MDA-MB-468 breast"
  growth, %: 63.1
